Answer each item with its documented half-life.
Assay: Half life in rat plasma at 10 mg/kg, po
Type: ADME, organism-based
Parameters: dose 10 mg/kg, route oral
Write the quantity with the unit trailing the number.

Report half-life for every entry below.
1. CC(=O)c1cc(F)cc2c3c(n(Cc4ccc(Cl)cc4)c12)C(CC(=O)O)CC3 (stereo not drawn)
2. CS(=O)(=O)c1cc(F)cc2c3c(n(Cc4ccc(Cl)cc4)c12)C(CC(=O)O)CC3 (stereo not drawn) [DIASTEREOMER 2]
3. CC(=O)c1cc(S(C)(=O)=O)cc2c3c(n(Cc4ccc(Cl)cc4)c12)[C@@H](CC(=O)O)CC3

["4 h", "7 h", "1.4 h"]
